system: 5-hydroxytryptamine receptor 1B (Rattus norvegicus)
Sequence (P28564 whole entry): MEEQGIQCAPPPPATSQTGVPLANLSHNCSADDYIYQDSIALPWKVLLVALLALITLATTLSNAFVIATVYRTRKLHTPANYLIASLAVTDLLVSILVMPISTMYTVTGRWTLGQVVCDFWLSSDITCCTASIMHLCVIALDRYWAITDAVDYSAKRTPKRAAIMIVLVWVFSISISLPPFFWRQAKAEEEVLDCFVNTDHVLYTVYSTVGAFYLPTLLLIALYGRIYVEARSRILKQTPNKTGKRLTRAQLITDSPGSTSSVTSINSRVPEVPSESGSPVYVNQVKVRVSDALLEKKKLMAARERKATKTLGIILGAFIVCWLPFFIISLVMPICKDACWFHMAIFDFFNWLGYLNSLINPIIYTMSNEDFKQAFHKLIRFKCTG
test_summary: Inhibitory activity against 5-hydroxytryptamine 1B receptor of rat striatal membrane homogenate using [3H]5-HT as the radioligand.
Below is a list of entries, each paired with its recorded Ki value.
Give your result in µM as a bare value.

Consider the reported Ki for these molecules:
record_smiles: CN(C)CCCCOc1cccc2ccccc12
unit_of_measure: µM
Ki: 1

record_smiles: CN(C)CCCOc1cccc2ccccc12
unit_of_measure: µM
Ki: 1

record_smiles: CCCN(C)CCOc1cccc2ccccc12
unit_of_measure: µM
Ki: 1.8

record_smiles: CN(C)CCOc1cccc2ccccc12
unit_of_measure: µM
Ki: 1.5

record_smiles: CCCCN(CCCC)CCOc1cccc2ccccc12
unit_of_measure: µM
Ki: 9

Now consider a different molecule.
INPUT: Any idea what its Ki is? The molecule is `CCCN(CCC)CCCOc1cccc2ccccc12`
OUTPUT: 6.1

###

system: Adrenergic receptor beta (Rattus norvegicus, UniProt P18090+P10608+P26255)
test_summary: Inhibitory activity against beta adrenergic receptor of rat frontal cortex homogenate using (1.0 nM) [3H]- dihydroalprenolol
Type: tissue-based
Recorded measurements of Ki, one per entry

These solved cases illustrate the format of a correct answer.
record_smiles: CCCN(C)CCOc1cccc2ccccc12
reported_result: 5.3 µM
//
record_smiles: CN(C)CCCOc1cccc2ccccc12
reported_result: 2.4 µM
//
record_smiles: CCCCN(CCCC)CCCOc1cccc2ccccc12
reported_result: 8.3 µM

INPUT: Could you share what Ki was measured for `CCCCN(CC)CCOc1cccc2ccccc12` , tested on Adrenergic receptor beta (Rattus norvegicus, UniProt P18090+P10608+P26255)?
OUTPUT: 5 µM

INPUT: Identify the measured Ki of `CCCCN(CCCC)CCOc1cccc2ccccc12` for Adrenergic receptor beta (Rattus norvegicus, UniProt P18090+P10608+P26255).
OUTPUT: > 10 µM

INPUT: Provide the documented Ki with Adrenergic receptor beta (Rattus norvegicus, UniProt P18090+P10608+P26255) as the system for `CN(C)CCOc1cccc2ccccc12`
OUTPUT: 4.5 µM

###

system: 5-hydroxytryptamine receptor 1A (Rattus norvegicus, UniProt P19327)
Sequence (P19327 whole entry): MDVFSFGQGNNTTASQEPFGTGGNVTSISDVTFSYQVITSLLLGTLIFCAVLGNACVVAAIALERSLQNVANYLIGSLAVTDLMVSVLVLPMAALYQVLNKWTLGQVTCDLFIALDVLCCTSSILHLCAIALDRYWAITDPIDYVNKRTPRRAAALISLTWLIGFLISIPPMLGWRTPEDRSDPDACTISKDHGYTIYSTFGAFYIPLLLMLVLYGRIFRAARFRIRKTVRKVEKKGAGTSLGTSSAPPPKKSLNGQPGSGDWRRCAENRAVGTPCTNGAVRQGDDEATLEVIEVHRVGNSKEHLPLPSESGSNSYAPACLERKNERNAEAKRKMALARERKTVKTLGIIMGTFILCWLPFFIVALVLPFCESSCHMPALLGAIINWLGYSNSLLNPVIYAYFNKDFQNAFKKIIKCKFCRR
test_summary: Inhibitory activity against 5-hydroxytryptamine 1A receptor of rat hippocampal tissue using [3H]OH-DPAT as radioligand.
Type: tissue-based, Hippocampus
# reported Ki; entries follow
Just the number in µM, nothing appended.

Example cases with answers are listed next.
compound: CN(C)Cc1cccc2ccccc12
unit_of_measure: µM
reported_result: 3.42
//
compound: CCCCN(CC)CCCc1cccc2ccccc12
unit_of_measure: µM
reported_result: 0.3
//
compound: CCCN(CCC)CC(O)COc1cccc2ccccc12 (stereo unspecified)
unit_of_measure: µM
reported_result: 1.32
//
compound: CCCCN(CC)CCCC1CCCc2ccccc21 (stereo unspecified)
unit_of_measure: µM
reported_result: 0.54

INPUT: Would you kindly share the measured Ki for `CCCCN(CC)CCC(=O)c1cccc2ccccc12` ?
OUTPUT: 3.53

INPUT: Please look up its Ki: `CN(C)CCCCc1ccccc1`
OUTPUT: 5

Attribution: ChEMBL document CHEMBL1124632
